Listing: inhibition at 75 µM of selected compounds
- System: Hepatitis B virus
- procedure_text: Antiviral activity against Hepatitis B virus infected in human HepG2.2.15 cells assessed as inhibition of HBsAg secretion at 75 uM after 9 days by ELISA
- Type: functional
- condition_info: HepG2 2.2.15, 216 h
Numeric answer only, unit % assumed.

Task item: Note inhibition at 75 µM for the compound shown: `COc1ccc(/C=C/C(=O)O/N=C/c2ccco2)cc1OC`
Reply: 39.4

Task item: Note inhibition at 75 µM for the compound shown: `COc1cc(/C=C/C(=O)O/N=C/c2ccco2)cc(OC)c1OC`
Reply: 36

Task item: Note inhibition at 75 µM for the compound shown: `O=C(/C=C/c1ccc2c(c1)OCO2)O/N=C/c1cccs1`
Reply: 52

Task item: Note inhibition at 75 µM for the compound shown: `COc1cc(/C=C/C(=O)O/N=C/c2cccs2)cc(OC)c1OC`
Reply: 30.9

Task item: Note inhibition at 75 µM for the compound shown: `COc1ccc(/C=C/C(=O)O/N=C/c2cccs2)cc1OC`
Reply: 29.3

Task item: Note inhibition at 75 µM for the compound shown: `COc1ccc(/C=C/C(=O)O/N=C/c2ccccn2)cc1OC`
Reply: 36.7

Task item: Note inhibition at 75 µM for the compound shown: Nc1ccn([C@@H]2CS[C@H](CO)O2)c(=O)n1 [LAMIVUDINE]
Reply: 33.1

---

- Tested on: Hepatitis B virus
- procedure_text: Antiviral activity against Hepatitis B virus infected in human HepG2.2.15 cells assessed as inhibition of HBsAg secretion at 75 uM after 9 days by ELISA
- Format: functional
- condition_info: HepG2 2.2.15, 216 h
Listing: inhibition at 75 µM of selected compounds
Numeric answer only, unit % assumed.

Example compounds with recorded inhibition at 75 µM:
> print(dat)
                                        smi  unit.tag  quantitative.readout
1  COc1cc(/C=C/C(=O)O/N=C/c2cccs2)cc2c1OCO2         %                  56.1
2   O=C(/C=C/c1ccc2c(c1)OCO2)O/N=C/c1ccccn1         %                  78.4
3  COc1cc(/C=C/C(=O)O/N=C/c2ccco2)cc2c1OCO2         %                  57.7
4    O=C(/C=C/c1ccc2c(c1)OCO2)O/N=C/c1ccco1         %                  59.5
5  COc1cc(/C=C/C(=O)O/N=C/c2ccccn2)cc2c1OCO2         %                  65.8

Moving on to another compound below.
Task item: Note inhibition at 75 µM for the compound shown: `COc1cc(/C=C/C(=O)O/N=C/c2ccccn2)cc(OC)c1OC`
Reply: 39.2

---

Listing: inhibition at 37.5 µM of selected compounds
- System: Hepatitis B virus
- procedure_text: Antiviral activity against Hepatitis B virus infected in human HepG2.2.15 cells assessed as inhibition of HBsAg secretion at 37.5 uM after 9 days by ELISA
- Assay type: functional
- condition_info: HepG2 2.2.15, 216 h
Numeric answer only, unit % assumed.

> print(dat)
                                        smi      measurement.label  unit.tag  quantitative.readout
1     COc1ccc(/C=C/C(=O)O/N=C/c2cccs2)cc1OC  inhibition at 37.5 µM         %                  20.5
2  COc1cc(/C=C/C(=O)O/N=C/c2ccccn2)cc(OC)c1OC  inhibition at 37.5 µM         %                  24.1
3  COc1cc(/C=C/C(=O)O/N=C/c2ccco2)cc(OC)c1OC  inhibition at 37.5 µM         %                  15.8
4   O=C(/C=C/c1ccc2c(c1)OCO2)O/N=C/c1ccccn1  inhibition at 37.5 µM         %                  70.7
5     COc1ccc(/C=C/C(=O)O/N=C/c2ccco2)cc1OC  inhibition at 37.5 µM         %                  21.2
6    COc1ccc(/C=C/C(=O)O/N=C/c2ccccn2)cc1OC  inhibition at 37.5 µM         %                  19.8
7  COc1cc(/C=C/C(=O)O/N=C/c2ccco2)cc2c1OCO2  inhibition at 37.5 µM         %                  36.5
8       Nc1ccn([C@@H]2CS[C@H](CO)O2)c(=O)n1  inhibition at 37.5 µM         %                  25.2

Task item: Note inhibition at 37.5 µM for the compound shown: `O=C(/C=C/c1ccc2c(c1)OCO2)O/N=C/c1cccs1`
Reply: 29.7

Task item: Note inhibition at 37.5 µM for the compound shown: `O=C(/C=C/c1ccc2c(c1)OCO2)O/N=C/c1ccco1`
Reply: 32.4

Task item: Note inhibition at 37.5 µM for the compound shown: `COc1cc(/C=C/C(=O)O/N=C/c2ccccn2)cc2c1OCO2`
Reply: 30.4

Task item: Note inhibition at 37.5 µM for the compound shown: `COc1cc(/C=C/C(=O)O/N=C/c2cccs2)cc(OC)c1OC`
Reply: 24.8

Task item: Note inhibition at 37.5 µM for the compound shown: `COc1cc(/C=C/C(=O)O/N=C/c2cccs2)cc2c1OCO2`
Reply: 29.7

Source: ChEMBL document CHEMBL3576819
